Test system: SW480
Type: functional, cell-based
Details: Homo sapiens, SW480, 72 h
pIC50: −log10 of the molar value.
pIC50 values for the compounds below.

Below: 3 compounds and their reported pIC50.
>  <smiles.input>
C#Cc1cccc(Nc2ncnc3cc(N4CCOCC4)c(F)cc23)c1

>  <pIC50>
< 4.00

$$$$
>  <smiles.input>
C#Cc1cccc(Nc2ncnc3cc(N4CCN(CCOC)CC4)c(F)cc23)c1

>  <pIC50>
4.72

$$$$
>  <smiles.input>
COCCN1CCN(c2cc3ncnc(Nc4ccc(OCc5cccc(F)c5)c(Cl)c4)c3cc2F)CC1

>  <pIC50>
< 4.00

$$$$

q: Quick check: pIC50 of `Fc1ccc(Nc2ncnc3cc(N4CCOCC4)c(F)cc23)cc1Cl` ?
a: < 4.00

q: `COCCN1CCN(c2cc3ncnc(Nc4ccc(F)c(Cl)c4)c3cc2F)CC1` ?
a: 4.79

q: `Fc1cccc(COc2ccc(Nc3ncnc4cc(N5CCOCC5)c(F)cc34)cc2Cl)c1` ?
a: 4.24

q: `C/C=C/c1ccc(Nc2ncnc3cc(N4CCOCC4)c(F)cc23)cc1` ?
a: < 4.00

q: `C/C=C/c1ccc(Nc2ncnc3cc(N4CCN(CCOC)CC4)c(F)cc23)cc1` ?
a: < 4.00
